In what follows, each item is paired with its pIC50 for hNAMPT protein (Homo sapiens (Human)).
pIC50: −log10 of the molar value.

Previously resolved entries follow.
compound="CCOc1cc(-c2ccc(F)cc2)nc2cc(C(=O)N[C@@H](C)c3nc4cnccc4[nH]3)ccc12 [Compound I-160]" readout_value="< 7.00"
compound="CCOc1cc(SCC)nc2cc(C(=O)NCCCc3ncc[nH]3)ccc12 [Compound I-49]" readout_value="> 8.00"
compound="CCCc1cc(OCC)c2ccc(C(=O)NCCCc3ncc[nH]3)cc2n1 [Compound I-226]" readout_value="< 7.00"
compound="CCOc1cc(-c2ccc(F)cc2)nc2cc(C(=O)NCCCc3cncnc3)ccc12 [Compound I-228]" readout_value="> 8.00"
compound="COCCOc1cc(-c2ccc(F)cc2)nc2cc(C(=O)NCCCc3n[nH]nc3C)ccc12 [Compound I-66]" readout_value="7.30 to 8.00"

Input: Notebook: pull reported pIC50 for hNAMPT protein (Homo sapiens (Human)), entry CCOc1cc(-c2ccc(F)cc2)nc2cc(C(=O)NCCCc3cncn3C)ccc12 [Compound I-224]
Output: > 8.00

Input: Lab note: need pIC50 with hNAMPT protein (Homo sapiens (Human)) for entry CCOc1cc(-c2cccnc2C)nc2cc(C(=O)NCCCc3nnc[nH]3)ccc12 [Compound I-213] , please look it up.
Sequence (P43490 whole entry): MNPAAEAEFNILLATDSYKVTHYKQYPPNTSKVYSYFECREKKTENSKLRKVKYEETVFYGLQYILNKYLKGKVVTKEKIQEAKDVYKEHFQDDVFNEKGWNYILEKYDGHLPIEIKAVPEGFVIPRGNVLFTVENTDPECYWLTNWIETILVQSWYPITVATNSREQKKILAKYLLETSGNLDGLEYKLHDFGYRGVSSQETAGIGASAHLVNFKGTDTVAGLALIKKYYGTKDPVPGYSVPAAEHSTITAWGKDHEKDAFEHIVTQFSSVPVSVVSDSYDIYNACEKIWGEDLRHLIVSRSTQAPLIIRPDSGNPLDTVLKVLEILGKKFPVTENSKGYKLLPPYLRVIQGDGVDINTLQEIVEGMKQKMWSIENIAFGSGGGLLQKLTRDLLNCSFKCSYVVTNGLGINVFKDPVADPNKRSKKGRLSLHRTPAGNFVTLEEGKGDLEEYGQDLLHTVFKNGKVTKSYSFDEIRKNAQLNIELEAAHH
Output: < 7.00

Input: Request: pIC50, test system hNAMPT protein (Homo sapiens (Human)), entry CCOc1cc(-c2cccc(C(F)(F)F)c2)nc2cc(C(=O)NCCCc3nnc[nH]3)ccc12 [Compound I-215]
Output: 7.00 to 7.30

Input: Can you look up pIC50 on hNAMPT protein (Homo sapiens (Human)) for CCOc1cc(-c2ccc(OC)nc2)nc2cc(C(=O)NCc3nc4cnccc4[nH]3)ccc12 [Compound I-193] ?
Output: > 8.00
